target: EGFR L858R/T790M/C797S (H1975-clone #25) (Homo sapiens, UniProt P00533, C797S/L858R/T790M); construct: expressed in transfected cells; host or cells: H1975 (clone #25), lentiviral transduction, endogenous EGFR knocked out; test: EGFR degradation, HTRF total-EGFR assay, H1975-clone #25 (LTC); format: cell-based; conditions: H1975-clone #25 L858R/T790M/C797S, 16 h treatment
Sequence (P00533 25-1210 T790M/C797S/L858R): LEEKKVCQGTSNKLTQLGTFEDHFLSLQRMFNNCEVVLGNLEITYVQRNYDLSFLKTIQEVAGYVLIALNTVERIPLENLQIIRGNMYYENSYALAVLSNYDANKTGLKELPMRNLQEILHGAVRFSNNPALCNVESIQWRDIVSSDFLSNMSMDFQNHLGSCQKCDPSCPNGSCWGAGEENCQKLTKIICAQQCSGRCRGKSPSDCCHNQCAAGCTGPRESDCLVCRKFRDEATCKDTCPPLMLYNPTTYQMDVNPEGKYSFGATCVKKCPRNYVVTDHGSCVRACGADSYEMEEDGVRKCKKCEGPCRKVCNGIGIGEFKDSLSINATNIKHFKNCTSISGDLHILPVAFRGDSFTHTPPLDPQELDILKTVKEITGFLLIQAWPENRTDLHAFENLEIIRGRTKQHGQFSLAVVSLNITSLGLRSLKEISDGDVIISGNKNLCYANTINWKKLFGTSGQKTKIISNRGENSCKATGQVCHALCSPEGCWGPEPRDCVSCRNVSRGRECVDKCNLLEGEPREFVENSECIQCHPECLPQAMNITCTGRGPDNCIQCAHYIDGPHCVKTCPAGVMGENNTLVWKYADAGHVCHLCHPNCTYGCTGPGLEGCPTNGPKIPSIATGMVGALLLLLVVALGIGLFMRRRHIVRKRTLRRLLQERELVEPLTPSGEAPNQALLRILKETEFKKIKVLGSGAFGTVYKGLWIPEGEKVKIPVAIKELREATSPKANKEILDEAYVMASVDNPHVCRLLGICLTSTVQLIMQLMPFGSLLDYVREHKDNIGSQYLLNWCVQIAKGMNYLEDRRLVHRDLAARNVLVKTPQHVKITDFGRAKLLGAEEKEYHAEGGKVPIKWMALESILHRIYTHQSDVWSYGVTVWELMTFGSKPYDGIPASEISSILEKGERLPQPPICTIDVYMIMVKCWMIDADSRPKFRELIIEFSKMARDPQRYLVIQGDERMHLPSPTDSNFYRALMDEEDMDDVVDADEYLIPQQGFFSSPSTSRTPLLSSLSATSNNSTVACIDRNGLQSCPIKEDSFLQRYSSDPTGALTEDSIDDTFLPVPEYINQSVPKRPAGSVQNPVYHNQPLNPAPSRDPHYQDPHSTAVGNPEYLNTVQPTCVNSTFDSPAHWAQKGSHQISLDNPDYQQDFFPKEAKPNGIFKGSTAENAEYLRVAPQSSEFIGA
Label f if Degradation H1975 # 25-LTC falls below 80; label t in every other case.

compound="Cc1cc2cc(n1)-c1cnn(C)c1OC[C@H]1C[C@@H](CN3/C(=N/C2=O)Nc2ccc(N4CCN(C5CCN(c6ccc(C7CCC(=O)NC7=O)nc6C)CC5)C(=O)C4)cc23)C1 (stereo partly shown) [Example 26]" class=t
compound="Cc1cc2cc(n1)-c1cnn(C)c1OC[C@H]1C[C@@H](CN3/C(=N/C2=O)Nc2ccc(N4CCN([C@@H]5CCN(c6cc(F)c([C@H]7CCC(=O)NC7=O)c(F)c6)C[C@@H]5F)CC4)cc23)C1 [Example 66]" class=f
compound="Cc1cc2cc(n1)-c1cnn(C)c1OC[C@H]1C[C@@H](CN3/C(=N/C2=O)Nc2ccc(N4CCN(C5CN(C6CCN(c7ccc(C8CCC(=O)NC8=O)nc7C)CC6)C5)CC4)cc23)C1 (stereo partly shown) [Example 121]" class=t
compound="Cc1cc2cc(n1)-c1cnn(C)c1OC[C@H]1C[C@@H](CN3/C(=N/C2=O)Nc2ccc(N4CCN(C5CCN(c6cc(F)c([C@H]7CCC(=O)NC7=O)c(F)c6)CC5)C(=O)C4)cc23)C1 [Example 25]" class=t
compound="Cc1cc2cc(n1)-c1cnn(C)c1OC[C@H]1C[C@@H](CN3/C(=N/C2=O)Nc2ccc(N4CCN(C5CCN(c6cc(F)c([C@H]7CCC(=O)NC7=O)c(F)c6)CC5)[C@H](CO)C4)cc23)C1 [Example 30]" class=t
compound="Cc1cc2cc(n1)-c1cnn(C)c1OC[C@H]1C[C@@H](CN3/C(=N/C2=O)Nc2ccc(N4CCC(N5CCN(c6cnc(C7CCC(=O)NC7=O)cc6C)C[C@@H]5C)CC4)cc23)C1 (stereo partly shown) [Example 110]" class=t
compound="Cc1cc2cc(n1)-c1cnn(C)c1OC[C@H]1C[C@@H](CN3/C(=N/C2=O)Nc2ccc(N4CCN(C5CN(c6cc(F)c([C@H]7CCC(=O)NC7=O)c(F)c6)C5)CC4)cc23)C1 [Example 29]" class=f
compound="Cc1cc2cc(n1)-c1cnn(C)c1OC[C@H]1C[C@@H](CN3/C(=N/C2=O)Nc2ccc(N4CCN(CC5CN(c6cc(F)c([C@H]7CCC(=O)NC7=O)c(F)c6)C5)CC4=O)cc23)C1 [Example 11]" class=t
compound="Cc1cc2cc(n1)-c1cnn(C)c1OC[C@H]1C[C@@H](CN3/C(=N/C2=O)Nc2ccc(N4CCN([C@H]5CCN(c6cnc(C7CCC(=O)NC7=O)cc6C)C[C@H]5F)CC4)cc23)C1 (stereo partly shown) [Example 134]" class=t
compound="COC[C@@H]1CN(c2ccc3c(c2)N2C[C@H]4C[C@@H](COc5c(cnn5C)-c5cc(cc(C)n5)C(=O)/N=C/2N3)C4)CCN1C1CCN(c2cnc(C3CCC(=O)NC3=O)cc2C)CC1 (stereo partly shown) [Example 120]" class=t
